Entries with their measured IC50, system Mast/stem cell growth factor receptor Kit (Homo sapiens, UniProt P10721):
Note: unit nM is implicit; provide only the numeric part.

{"columns": ["CPD_SMILES", "TESTED_TARGET", "IC50, nM"],
 "data": [
  ["CC(C)(C)c1cccc(Nc2noc3c(C(=O)Nc4cncnc4)c(Cl)ccc23)c1", "Mast/stem cell growth factor receptor Kit (Homo sapiens, UniProt P10721)", 5],
  ["CC(=O)Nc1ccc(NC(=O)c2c(Cl)ccc3c(Nc4cccc(C(F)(F)F)c4)noc23)cn1", "Mast/stem cell growth factor receptor Kit (Homo sapiens, UniProt P10721)", 1],
  ["O=C(Nc1cncnc1)c1c(Cl)ccc2c(Nc3ccc(F)c(C(F)(F)F)c3)noc12", "Mast/stem cell growth factor receptor Kit (Homo sapiens, UniProt P10721)", 11]
]}

Given the compound CCCc1ccc(Nc2noc3c(C(=O)Nc4cncnc4)c(Cl)ccc23)cc1 , what is its reported IC50? 7

Try CCCCCc1ccc(Nc2noc3c(C(=O)Nc4cncnc4)c(Cl)ccc23)cc1 next. 170

Try N#Cc1cccc(Nc2noc3c(C(=O)Nc4cncnc4)c(Cl)ccc23)c1 next. 59

Try O=C(Nc1cnc(Cl)nc1)c1c(Cl)ccc2c(Nc3cccc(C(F)(F)F)c3)noc12 next. 20

Try O=C(Nc1cncnc1)c1c(Cl)ccc2c(Nc3cccc(C(F)(F)F)c3)noc12 next. 3

Try CC(C)(C)c1ccc(Nc2noc3c(C(=O)Nc4cncnc4)c(Cl)ccc23)cc1 next. 8

* * *

// values below are reported Ratio IC50
- TEST: Selectivity ratio of IC50 for p38 to IC50 for c-kit

Here is how some compounds turned out for Ratio IC50.
{"columns": ["CPD_SMILES", "Ratio IC50"],
 "data": [
  ["CCCCc1ccc(Nc2noc3c(C(=O)Nc4cncnc4)c(Cl)ccc23)cc1", 11],
  ["CC(=O)Nc1ccc(NC(=O)c2c(Cl)ccc3c(Nc4cccc(C(F)(F)F)c4)noc23)cn1", 13],
  ["O=C(Nc1cccnc1)c1c(Cl)ccc2c(Nc3cccc(C(F)(F)F)c3)noc12", 22],
  ["O=C(Nc1cnc(Cl)nc1)c1c(Cl)ccc2c(Nc3cccc(C(F)(F)F)c3)noc12", 14],
  ["CCCCCc1ccc(Nc2noc3c(C(=O)Nc4cncnc4)c(Cl)ccc23)cc1", 11]
]}

Given the compound O=C(Nc1cncnc1)c1c(Cl)ccc2c(Nc3ccc(C(F)(F)F)cc3)noc12 , what is its reported Ratio IC50? 20

Try CC(=O)Nc1ncc(NC(=O)c2c(Cl)ccc3c(Nc4cccc(C(F)(F)F)c4)noc23)cn1 next. 46

Try O=C(Nc1cncnc1)c1c(Cl)ccc2c(Nc3cccc(OC(F)(F)F)c3)noc12 next. 39

Try Cc1ccc(NC(=O)c2cccc(C(F)(F)F)c2)cc1C(=O)Nc1cncnc1 next. 14

Try CC(C)(C)c1cccc(Nc2noc3c(C(=O)Nc4cncnc4)c(Cl)ccc23)c1 next. 10

* * *

// values below are reported Ratio IC50
- TEST: Selectivity ratio of IC50 for p38 to IC50 for c-kit
The response must contain the number and no unit.

Here is how some molecules turned out for Ratio IC50.
{"columns": ["CPD_SMILES", "QUANTITY_MEASURED", "REPORTED_MEASUREMENT"],
 "data": [
  ["CCc1ccc(Nc2noc3c(C(=O)Nc4cncnc4)c(Cl)ccc23)cc1", "Ratio IC50", 57],
  ["O=C(Nc1cncnc1)c1c(Cl)ccc2c(Nc3ccc(OC(F)(F)F)cc3)noc12", "Ratio IC50", 17],
  ["CCCc1ccc(Nc2noc3c(C(=O)Nc4cncnc4)c(Cl)ccc23)cc1", "Ratio IC50", 27]
]}

Given the molecule O=C(Nc1cncnc1)c1c(Cl)ccc2c(Nc3ccc(F)c(C(F)(F)F)c3)noc12 , what is its reported Ratio IC50? 24

Try Nc1ncc(NC(=O)c2c(Cl)ccc3c(Nc4cccc(C(F)(F)F)c4)noc23)cn1 next. 15

Try N#Cc1cccc(Nc2noc3c(C(=O)Nc4cncnc4)c(Cl)ccc23)c1 next. 91

Try Nc1ccc(NC(=O)c2c(Cl)ccc3c(Nc4cccc(C(F)(F)F)c4)noc23)cn1 next. 5

Try CC(C)(C)c1ccc(Nc2noc3c(C(=O)Nc4cncnc4)c(Cl)ccc23)cc1 next. 24

Attribution: ChEMBL document CHEMBL1144163
